Each item that follows carries a reported Emax.
Target: H3R-365 (Homo sapiens, UniProt Q9Y5N1)
Assay: cell-based
Set-up: species or system HEK293-EPAC stably expressing H3R isoform
Conditions: HEK293-EPAC stably expressing H3R isoform, read-out: H3R-365 α

>  <Compound>
CCNC(=O)C1CC(F)(c2ccc(CN3CCCC3)c(F)c2)C1 (stereo not shown) [PF-3654746]

>  <Emax, %>
-100

$$$$
>  <Compound>
N=C(NCc1ccc(Cl)cc1)SCCCc1c[nH]cn1 [clobenpropit]

>  <Emax, %>
-80

$$$$
>  <Compound>
C[C@@H]1CCCN1CCc1cc2cc(-c3ccc(C#N)cc3)ccc2o1 [ABT-239]

>  <Emax, %>
-110

$$$$
>  <Compound>
S=C(NC1CCCCC1)N1CCC(c2c[nH]cn2)CC1 [thioperamide]

>  <Emax, %>
-100

$$$$

---

Biological target: H3R-445 (Homo sapiens, UniProt Q9Y5N1)
Experiment: cell-based
Design: species or system HEK293-EPAC stably expressing H3R isoform
Conditions: HEK293-EPAC stably expressing H3R isoform, read-out: H3R-445 α

>  <Molecule>
S=C(NC1CCCCC1)N1CCC(c2c[nH]cn2)CC1 [thioperamide]

>  <Result Units>
%

>  <Emax>
-90

$$$$
>  <Molecule>
C[C@@H]1CCCN1CCc1cc2cc(-c3ccc(C#N)cc3)ccc2o1

>  <Result Units>
%

>  <Emax>
-100

$$$$
>  <Molecule>
CCNC(=O)C1CC(F)(c2ccc(CN3CCCC3)c(F)c2)C1 (stereo not shown)

>  <Result Units>
%

>  <Emax>
-120

$$$$
>  <Molecule>
N=C(NCc1ccc(Cl)cc1)SCCCc1c[nH]cn1

>  <Result Units>
%

>  <Emax>
-100

$$$$

---

Biological target: H3R-445 (Homo sapiens, UniProt Q9Y5N1)
Assay: cell-based
Design: species or system HEK293-EPAC stably expressing H3R isoform
pEC50: −log10 of the molar value.
In this section we review reported pEC50 values for a set of compounds.
Measurement Label: pEC50

>  <Compound>
CCCNC1CN(c2ccnc(N)n2)C1

>  <System Tested>
H3R-445 (Homo sapiens, UniProt Q9Y5N1)

>  <Recorded Result>
9.00

$$$$
>  <Compound>
c1ccc(COCCCc2c[nH]cn2)cc1 [proxyfan, 4-[3-(phenylmethoxy)propyl]-3H-imidazole]

>  <System Tested>
H3R-445 (Homo sapiens, UniProt Q9Y5N1)

>  <Recorded Result>
8.10

$$$$

---

Biological target: H3R-415 (Homo sapiens)
Assay: cell-based
Set-up: species or system HEK293-EPAC stably expressing H3R isoform
// values below are reported EC50
Measurement Label: EC50 (pM)

>  <Molecule>
CCNC(=O)C1CC(F)(c2ccc(CN3CCCC3)c(F)c2)C1 (centres unmarked) [PF-3654746]

>  <Measurement Label>
EC50

>  <Recorded Result>
501

$$$$
>  <Molecule>
O=C(c1ccc(CN2CCOCC2)cc1)N1CCN(C2CC2)CC1 [bavisant]

>  <Measurement Label>
EC50

>  <Recorded Result>
794

$$$$

---

Some compounds, each annotated with its measured Emax.
Molecular target: H3R-415 (Homo sapiens)
Test: cell-based
Design: species or system HEK293-EPAC stably expressing H3R isoform
Conditions: HEK293-EPAC stably expressing H3R isoform, read-out: H3R-415 α

>  <Chem Smiles>
c1cc(Cc2cnc[nH]2)ccn1

>  <Emax / %>
70

$$$$
>  <Chem Smiles>
NCCCCCc1c[nH]cn1

>  <Emax / %>
50

$$$$
>  <Chem Smiles>
CN(C)CCCCCc1c[nH]cn1

>  <Emax / %>
40

$$$$
>  <Chem Smiles>
N=C(N)SCCCc1cnc[nH]1

>  <Emax / %>
50

$$$$
>  <Chem Smiles>
NCCCCc1c[nH]cn1

>  <Emax / %>
80

$$$$

---

Target: H3R-373 (Homo sapiens, UniProt Q9Y5N1, INS445KMKKKTCL)
Assay: cell-based
Parameters: species or system HEK293-EPAC stably expressing H3R isoform
Details: HEK293-EPAC stably expressing H3R isoform, read-out: H3R-373 α
Measurement Label: Emax (%)

>  <Compound>
NCCCCCc1c[nH]cn1 [impentamine, 5-(3H-imidazol-4-yl)pentan-1-amine]

>  <Recorded Result>
70

$$$$
>  <Compound>
NCCCCc1c[nH]cn1 [imbutamine, 4-(3H-imidazol-4-yl)butan-1-amine]

>  <Recorded Result>
80

$$$$
>  <Compound>
c1cc(Cc2cnc[nH]2)ccn1 [immethridine, 4-(3H-imidazol-4-ylmethyl)pyridine]

>  <Recorded Result>
90

$$$$
>  <Compound>
CCCNC1CN(c2ccnc(N)n2)C1 [VUF16839]

>  <Recorded Result>
60

$$$$
>  <Compound>
N=C(N)SCCCc1cnc[nH]1 [VUF8328]

>  <Recorded Result>
70

$$$$

---

Quick note: these are Ki numbers for system: H3R-365 (Homo sapiens)

>  <Chem Smiles>
CN(C)CCCCCc1c[nH]cn1

>  <Result Units>
nM

>  <Ki>
20

$$$$
>  <Chem Smiles>
NCCCCCc1c[nH]cn1

>  <Result Units>
nM

>  <Ki>
2

$$$$
>  <Chem Smiles>
N=C(N)SCCCc1cnc[nH]1

>  <Result Units>
nM

>  <Ki>
0.794

$$$$

---

compounds and their reported Emax
Target: H3R-445 (Homo sapiens, UniProt Q9Y5N1)
Experiment: cell-based
Set-up: species or system HEK293-EPAC stably expressing H3R isoform
Settings: HEK293-EPAC stably expressing H3R isoform, read-out: H3R-445 α

>  <Compound>
NCCCCCc1c[nH]cn1 [impentamine, 5-(3H-imidazol-4-yl)pentan-1-amine]

>  <Result Units>
%

>  <Emax>
60

$$$$
>  <Compound>
c1cc(Cc2cnc[nH]2)ccn1 [immethridine, 4-(3H-imidazol-4-ylmethyl)pyridine]

>  <Result Units>
%

>  <Emax>
90

$$$$
>  <Compound>
NCCCCc1c[nH]cn1 [imbutamine, 4-(3H-imidazol-4-yl)butan-1-amine]

>  <Result Units>
%

>  <Emax>
100

$$$$
>  <Compound>
c1ccc(COCCCc2c[nH]cn2)cc1 [proxyfan, 4-[3-(phenylmethoxy)propyl]-3H-imidazole]

>  <Result Units>
%

>  <Emax>
90

$$$$
>  <Compound>
CCCNC1CN(c2ccnc(N)n2)C1 [VUF16839]

>  <Result Units>
%

>  <Emax>
90

$$$$
>  <Compound>
N=C(N)SCCCc1cnc[nH]1 [VUF8328]

>  <Result Units>
%

>  <Emax>
80

$$$$
>  <Compound>
CN(C)CCCCCc1c[nH]cn1 [dimethyl-impentamine]

>  <Result Units>
%

>  <Emax>
60

$$$$
>  <Compound>
N=C(N)SCCc1cnc[nH]1 [imetit]

>  <Result Units>
%

>  <Emax>
90

$$$$

---

Target: H3R-373 (Homo sapiens, UniProt Q9Y5N1, INS445KMKKKTCL)
Reported Ki values for a set of compounds
Measurement Label: Ki (nM)

>  <Compound>
O=C(c1ccc(CN2CCOCC2)cc1)N1CCN(C2CC2)CC1

>  <System Tested>
H3R-373 (Homo sapiens, UniProt Q9Y5N1, INS445KMKKKTCL)

>  <Recorded Result>
79.4

$$$$
>  <Compound>
NCCCCc1c[nH]cn1

>  <System Tested>
H3R-373 (Homo sapiens, UniProt Q9Y5N1, INS445KMKKKTCL)

>  <Recorded Result>
0.398

$$$$
>  <Compound>
N=C(N)SCCc1cnc[nH]1

>  <System Tested>
H3R-373 (Homo sapiens, UniProt Q9Y5N1, INS445KMKKKTCL)

>  <Recorded Result>
0.126

$$$$
>  <Compound>
CCCNC1CN(c2ccnc(N)n2)C1

>  <System Tested>
H3R-373 (Homo sapiens, UniProt Q9Y5N1, INS445KMKKKTCL)

>  <Recorded Result>
0.398

$$$$
>  <Compound>
NCCCCCc1c[nH]cn1

>  <System Tested>
H3R-373 (Homo sapiens, UniProt Q9Y5N1, INS445KMKKKTCL)

>  <Recorded Result>
1.58

$$$$
>  <Compound>
c1cc(Cc2cnc[nH]2)ccn1

>  <System Tested>
H3R-373 (Homo sapiens, UniProt Q9Y5N1, INS445KMKKKTCL)

>  <Recorded Result>
0.1

$$$$
>  <Compound>
CCNC(=O)C1CC(F)(c2ccc(CN3CCCC3)c(F)c2)C1 (stereo not shown)

>  <System Tested>
H3R-373 (Homo sapiens, UniProt Q9Y5N1, INS445KMKKKTCL)

>  <Recorded Result>
126

$$$$
>  <Compound>
N=C(N)SCCCc1cnc[nH]1

>  <System Tested>
H3R-373 (Homo sapiens, UniProt Q9Y5N1, INS445KMKKKTCL)

>  <Recorded Result>
0.316

$$$$
>  <Compound>
c1ccc(COCCCc2c[nH]cn2)cc1 [proxyfan, 4-[3-(phenylmethoxy)propyl]-3H-imidazole]

>  <System Tested>
H3R-373 (Homo sapiens, UniProt Q9Y5N1, INS445KMKKKTCL)

>  <Recorded Result>
1

$$$$
>  <Compound>
CN(C)CCCCCc1c[nH]cn1

>  <System Tested>
H3R-373 (Homo sapiens, UniProt Q9Y5N1, INS445KMKKKTCL)

>  <Recorded Result>
20

$$$$
